Data credit: patent US20200339680A1

# Assay target: T1, human TMEM106B (human, UniProt Q9NUM4 2-274)
# T1 construct: full-length, transiently expressed on HEK293 cells, or natively expressed on HeLa, U251 and A549 cells (the cell is named under assay); also the source of the Pepscan peptides; also called huTMEM106B; huTMEM
# Assay comment: FACS A549 10 ug/ml
Recorded measurements of MFI, one per entry
Please respond with the number in MFI and leave the unit unwritten.

TM-16 (antibody, V domains shown) VH: EVQLQQSGAELVRPGASVKLSCTTSGFNIKDYYMHWVKQRTEQGLEWIGRIDPEDGETKYAPEFQGKATITSDTSSNTAFLQLSSLTSEDTAVYYCASSQPFTYWGQGTLVTVSA VL: QIVLTQSPAIMSASPGEKLTMTCSASSSLNYMYWYQQKPGSSPRLLIYDTSNLASGVPVRFSGSGSGTSYSLTISRMEAEDGATYYCQQWTSFPPTFGAGTKLELK; 557

Query: Return the recorded MFI value; entry: TM-18 (antibody, V domains shown) VH: EVRLQQSGPELVKPGASVKISCKTSGYTFTDYYMNWVKQSHGKSLEWIVNINPNNGDAFYNQKFKGKATLTVDKSSNTAYLDLRSLTSEDSAVYYCAREGQLRLRRVYAMDYWGQGTSVTVSS VL: DIVLAQSPASLAVSLGQRATISCRASKSVSISVYTYVHWYQQKPGQPPKLLIYLASNLESGVPARFSGSGSGTDFTLNIHPVEEEDAATYYCQHSRELPYTFGGGTKLEIK
Reply: 5190
